test system: L1210 leukemia ip in BDF1 mice, survival T/C; assay: NCI In Vivo Anticancer Drug Screen. Data for tumor model L1210 Leukemia (intraperitoneal) in B6D2F1 (BDF1) mice; settings: endpoint: mean survival time; dose: 50.0 mg/kg/injection; schedule: Q04DX002 (ip); vehicle: saline; higher = longer survival
Toxic doses and inconclusive results are not listed.
In this section we review reported T/C values for a set of compounds.

{"Compound": "CCOC=Nc1c(/C=C(/O)C(=O)OCC)c[n+]([O-])nc1OC", "T/C": "96 % of control"}

Attention now turns to another entry.
[in] // lookup T/C for BrC1CC2OC2C2OC12 (stereo not given)
[out] 105 % of control

###

system: L1210 leukemia ip in BDF1 mice, survival T/C; experiment: NCI In Vivo Anticancer Drug Screen. Data for tumor model L1210 Leukemia (intraperitoneal) in B6D2F1 (BDF1) mice; conditions: endpoint: mean survival time; dose: 400.0 mg/kg/injection; schedule: Q04DX003 (ip); vehicle: Klucel (hydroxypropylcellulose) (HPC); higher = longer survival
Inconclusive results and toxic doses are left out.
In this section we review reported T/C values for a set of molecules.

Worked examples follow.
{"Molecule": "COc1ccc(Cl)cc1NC(=O)c1cccc(C(=O)Nc2cc(Cl)ccc2OC)c1", "T/C": "92 % of control"}
{"Molecule": "CCOC(=O)c1ccc(Cl)cc1", "T/C": "102 % of control"}

[in] // lookup T/C for `O=c1cc(CO)[nH]cc1O`
[out] 122 % of control

[in] // lookup T/C for `CC(=O)COc1cccc(Cl)c1`
[out] 97 % of control

[in] // lookup T/C for `Cc1nccnc1SC1CCCCC1`
[out] 93 % of control

[in] // lookup T/C for `CCC(CC)(COC(N)=O)COC(N)=O`
[out] 93 % of control

[in] // lookup T/C for `Cc1cc(N(C)C)c([N+](=O)[O-])cc1C=O`
[out] 94 % of control

[in] // lookup T/C for `Nc1c(Br)cc(O)c2c1C(=O)c1ccccc1C2=O`
[out] 96 % of control

[in] // lookup T/C for CCOC(=O)C1CCN(S(=O)(=O)c2ccc(C)cc2)c2cc(Cl)ccc2C1=O (configuration not stated)
[out] 94 % of control

[in] // lookup T/C for CC(=O)NC1CCCCC1CC1CCCCC1 (configuration not stated)
[out] 98 % of control

[in] // lookup T/C for `[O-][n+]1onc(-c2ccccc2)c1-c1ccccc1`
[out] 108 % of control

[in] // lookup T/C for COc1ccc(OCC2CO2)cc1 (configuration not stated)
[out] 102 % of control

###

tested on: L1210 leukemia ip in BDF1 mice, survival T/C; assay: NCI In Vivo Anticancer Drug Screen. Data for tumor model L1210 Leukemia (intraperitoneal) in B6D2F1 (BDF1) mice; details: endpoint: mean survival time; dose: 400.0 mg/kg/injection; schedule: Q01DX001 (ip); vehicle: carboxymethylcellulose (CMC); higher = longer survival
Inconclusive results and toxic doses are left out.
Reported Property: T/C

Worked examples follow.
{"Compound": "CCC(=O)c1ccc(N=Nc2c(N)nc(N)[nH]c2=O)cc1", "T/C": "103 % of control"}
{"Compound": "O=P(NO)(c1ccccc1)c1ccccc1", "T/C": "95 % of control"}
{"Compound": "O=C1c2ccccc2C(=O)c2c1ccc1c2[nH]c2ccccc21", "T/C": "89 % of control"}
{"Compound": "O=S(=O)(CS(=O)(=O)Oc1ccccc1)Oc1ccccc1", "T/C": "93 % of control"}
{"Compound": "CCOC(=O)Nc1cc(N)c([N+](=O)[O-])c(NC(c2ccccc2)c2ccccc2)n1", "T/C": "92 % of control"}
{"Compound": "Cc1ccnc(NS(=O)(=O)c2ccc(N=Nc3c(N)[nH]c(=S)[nH]c3=O)cc2)n1", "T/C": "95 % of control"}
{"Compound": "CCCC1C(CC)C=NN1Cc1ccccc1 (stereo not given)", "T/C": "92 % of control"}
{"Compound": "CCS(=O)(=O)c1ccc(C(=O)N=[N+]=[N-])cc1", "T/C": "105 % of control"}
{"Compound": "Nc1c(Br)cc(Br)c2[nH]c(=O)c3ccccc3c12", "T/C": "98 % of control"}
{"Compound": "CCOC(=O)Nc1cc(NC(c2ccccc2)c2ccccc2)c([N+](=O)[O-])c(N)n1", "T/C": "89 % of control"}

[in] // lookup T/C for `O=C1OC(c2cccc(Cl)c2)=N/C1=C\C=C/c1ccccc1`
[out] 93 % of control

[in] // lookup T/C for `ClC(=Nc1ccccc1)c1cc(Cl)ccn1`
[out] 100 % of control

[in] // lookup T/C for `O=C(NO)Nc1cccc(Cl)c1`
[out] 100 % of control

###

tested on: L1210 leukemia ip in BDF1 mice, survival T/C; test: NCI In Vivo Anticancer Drug Screen. Data for tumor model L1210 Leukemia (intraperitoneal) in B6D2F1 (BDF1) mice; settings: endpoint: mean survival time; dose: 100.0 mg/kg/injection; schedule: Q04DX003 (ip); vehicle: saline; higher = longer survival
Inconclusive results and toxic doses are left out.
Reported Property: T/C

Worked examples follow.
{"Compound": "C=CCc1cc(CN(C)CCO)c(O)c(OC)c1", "T/C": "91 % of control"}
{"Compound": "COCc1ccc(COC)cc1", "T/C": "103 % of control"}
{"Compound": "C=CC1COC=C2CN3CCc4cc(OC)c(O)cc4C3CC21 (stereo not drawn)", "T/C": "100 % of control"}
{"Compound": "CCCC(=O)N(C(=O)CCC)c1cc2c3c(c1)CCCN3CCC2", "T/C": "93 % of control"}
{"Compound": "CNC(=O)N(c1ccccc1)C1CCCCC1", "T/C": "104 % of control"}
{"Compound": "Cn1c(O)c(C=N)c(=O)[nH]c1=O", "T/C": "90 % of control"}
{"Compound": "CCN1CC(CCN2CCOCC2)C(c2ccccc2)(c2ccccc2)C1=O (stereo not drawn)", "T/C": "92 % of control"}
{"Compound": "COc1ccc(CCNC2C3CC4CC(C3)CC2C4)cc1OC (stereo not drawn)", "T/C": "94 % of control"}

[in] // lookup T/C for `O=C1C=CC(=O)N1c1ccc2c(c1)oc(=O)c1ccccc12`
[out] 96 % of control

[in] // lookup T/C for `CC1(C)CC(=O)c2c(cc3c(c2O)C(=O)CC(C)(C)O3)O1`
[out] 100 % of control

[in] // lookup T/C for `CC1(C)OC(=O)C(=Cc2c(Cl)cccc2Cl)C(=O)O1`
[out] 99 % of control

[in] // lookup T/C for `CC(C)(N)COS(=O)(=O)O`
[out] 101 % of control

[in] // lookup T/C for CCC[N+](CC)(CC)CCOC(=O)C1C2CC3OC(=O)C1C3C2 (stereo not drawn)
[out] 101 % of control

###

test system: L1210 leukemia ip in BDF1 mice, survival T/C; test: NCI In Vivo Anticancer Drug Screen. Data for tumor model L1210 Leukemia (intraperitoneal) in B6D2F1 (BDF1) mice; conditions: endpoint: mean survival time; dose: 400.0 mg/kg/injection; schedule: Q04DX003 (ip); vehicle: Klucel (hydroxypropylcellulose) (HPC); higher = longer survival
Toxic doses and inconclusive results are not listed.
Reported Property: T/C

Worked examples follow.
{"Compound": "COc1ccc(CCNC(=O)C(=O)NCCc2ccc(OC)c(OC)c2)cc1OC", "System Name": "L1210 leukemia ip in BDF1 mice, survival T/C", "Measured Value": "92 % of control"}
{"Compound": "S=C(Cc1ccccc1)NC1CCCCC1", "System Name": "L1210 leukemia ip in BDF1 mice, survival T/C", "Measured Value": "95 % of control"}
{"Compound": "CCOC1(c2ccccc2)C(c2ccccc2)N1C(=O)c1ccc([N+](=O)[O-])cc1 (stereo unspecified)", "System Name": "L1210 leukemia ip in BDF1 mice, survival T/C", "Measured Value": "92 % of control"}

[in] Look up T/C with L1210 leukemia ip in BDF1 mice, survival T/C for this compound: `CCOc1ccccc1NC(=O)COc1ccc(Cl)cc1`
[out] 108 % of control

[in] Look up T/C with L1210 leukemia ip in BDF1 mice, survival T/C for this compound: `CCOc1ccc(/C=C(\NC(=O)c2ccccc2)C(=O)Nc2ccccc2)cc1OC`
[out] 91 % of control

[in] Look up T/C with L1210 leukemia ip in BDF1 mice, survival T/C for this compound: `CCOC(=O)NC(N)=O`
[out] 98 % of control

###

Tested on: L1210 leukemia ip in BDF1 mice, survival T/C
Assay: NCI In Vivo Anticancer Drug Screen. Data for tumor model L1210 Leukemia (intraperitoneal) in B6D2F1 (BDF1) mice
Conditions: endpoint: mean survival time; dose: 200.0 mg/kg/injection; schedule: Q04DX003 (ip); vehicle: Klucel (hydroxypropylcellulose) (HPC); higher = longer survival
Description: The antitumor activity of compounds was measured in mice bearing transplantable tumors. Survival or tumor size were measured and the results are expressed as the measurement made in the treated group (T) divided by the measurement made in the vehicle treated control group (C). The tumor model used in this assay is L1210 Leukemia (intraperitoneal) in B6D2F1 (BDF1) mice
Toxic doses and inconclusive results are not listed.
Reported Property: T/C

Worked examples follow.
{"Compound": "CCOC(=O)CCN(CCC(=O)OCC)C1CC1c1ccccc1 (stereo not given)", "T/C": "95 % of control"}
{"Compound": "O=C(Nc1ccc(Br)cc1)Nc1cc([N+](=O)[O-])ccc1F", "T/C": "91 % of control"}
{"Compound": "O=C(c1ccccc1)C1C2C=CC(C2)C1C(=O)c1ccccc1 (stereo not given)", "T/C": "97 % of control"}
{"Compound": "Cc1nccnc1SC1CCCCC1", "T/C": "96 % of control"}
{"Compound": "COc1ccc(COC(=O)CN2C(=O)c3ccccc3C2=O)cc1", "T/C": "95 % of control"}

[in] // lookup T/C for `C(=N\N1CCN(/N=C/c2ccccc2)C1c1ccccc1)/c1ccccc1`
[out] 94 % of control

[in] // lookup T/C for `COC(=O)NS(=O)(=O)C=C(c1ccccc1)c1ccccc1`
[out] 108 % of control

[in] // lookup T/C for `CCCCCCCCCCCCCCCC(=O)OCc1cc(=O)c(O)co1`
[out] 94 % of control

[in] // lookup T/C for CCOC1(c2ccccc2)C(c2ccccc2)N1C(=O)c1ccc([N+](=O)[O-])cc1 (stereo not given)
[out] 91 % of control

[in] // lookup T/C for `O=[N+]([O-])c1ccc(/C=C\c2ccccc2)cc1`
[out] 98 % of control

[in] // lookup T/C for `COc1ccc(CNCCNCc2ccc(OC)cc2)cc1`
[out] 94 % of control

[in] // lookup T/C for `CCOC(=O)c1ccc(Cl)cc1`
[out] 102 % of control

[in] // lookup T/C for `O=C(O)COc1ccc(Cl)cc1CCl`
[out] 98 % of control

[in] // lookup T/C for `Nc1cc(Cl)cc2cc(Br)cnc12`
[out] 98 % of control

[in] // lookup T/C for `COc1cc(C)c(Cl)c(C)c1C(C)=O`
[out] 101 % of control

[in] // lookup T/C for FC1(F)SC2c3ccccc3CCC2C1(F)F (stereo not given)
[out] 95 % of control

[in] // lookup T/C for `CC(=O)O[C@H]1CC[C@@]2(C)C(=CC[C@H]3[C@@H]4CC[C@H](O)[C@@]4(C)CC[C@@H]32)C1`
[out] 103 % of control

[in] // lookup T/C for `O=C(O)/C(=C\c1ccc([N+](=O)[O-])cc1)c1cccc2ccccc12`
[out] 91 % of control

[in] // lookup T/C for `O=C1OCC/C1=C/CCC/C=C1\CCOC1=O`
[out] 94 % of control

[in] // lookup T/C for `Cc1ccc(S(=O)(=O)N(c2ccc(I)cc2F)S(=O)(=O)c2ccc(C)cc2)cc1`
[out] 97 % of control

[in] // lookup T/C for `O=[N+]([O-])c1ccc(/C=C/c2ccccn2)s1`
[out] 112 % of control

[in] // lookup T/C for `CC(=O)Nc1cc([N+](=O)[O-])ccc1O`
[out] 101 % of control

[in] // lookup T/C for `ON=C(c1ccccn1)c1ccccn1`
[out] 93 % of control

[in] // lookup T/C for O=C(OC1C=CCC1)c1ccc([N+](=O)[O-])cc1 (stereo not given)
[out] 93 % of control

[in] // lookup T/C for `S=C(Cc1ccccc1)NC1CCCCC1`
[out] 101 % of control

[in] // lookup T/C for `CC(=O)Nc1ccc2ccc3ccccc3c2c1`
[out] 98 % of control

[in] // lookup T/C for `CNC(=S)N/N=C/c1ccccn1`
[out] 101 % of control

[in] // lookup T/C for `COC(=O)CN(C(=S)c1ccccc1)c1ccccc1`
[out] 96 % of control

[in] // lookup T/C for `Cc1ccc(NS(=O)(=O)c2ccc(F)cc2)cc1Cl`
[out] 97 % of control

[in] // lookup T/C for `CCOC(=O)c1cnc(N)nc1`
[out] 101 % of control
